- Tested on: LOX IMVI melanoma
- run_description: NCI-60 one-dose screen, 48 h
- measurement_parameters: 10 µM unless noted
The panel holds about 83,000 compounds, 20% with a hit somewhere; the sample as a whole holds those more often. Calls of active or inactive are those of the source. How the source made its calls: active means growth percent below 10; inactive means the rest.
Log the outcome using a class from 1 = active, 0 = inactive

The examples below pair each entry with its known result.
{"molecule": "Cn1c(=O)c2nc(SCc3ccccc3)n(C)c2n(C)c1=O", "assigned_category": 0}
{"molecule": "CN(CC(=O)Nc1nc2ccccc2[nH]1)S(=O)(=O)c1ccc(Cl)cc1", "assigned_category": 0}
{"molecule": "O=C(NCCCO)c1cc(Cl)ccc1O", "assigned_category": 0}
{"molecule": "C=CCCCCCCCCC(=O)[O][Sn]([CH2]CCC)([CH2]CCC)[CH2]CCC", "assigned_category": 1}
{"molecule": "ClC1=C(Cl)C(Cl)=C(Cl)C1=Cc1ccc(Cl)cc1", "assigned_category": 1}
{"molecule": "COc1cc(/C=C/C(=O)c2c(-c3ccc(F)cc3)nc3sc(C)nn23)cc(OC)c1OC", "assigned_category": 1}

// param item: `O=C(Nc1ccc(Oc2ccc(NC(=O)Nc3ccc([N+](=O)[O-])cc3)cc2)cc1)Nc1ccc([N+](=O)[O-])cc1` ; yields the recorded call
0

Let us now turn to `C[C@]12C[C@H](O)[C@H]3[C@@H](CCC4=CC(=O)CC[C@@]43C)[C@@H]1CC[C@@H]2C(=O)CO`
0

Ok, now O=c1[nH]c(=O)n(C2CC(O)C(CO)O2)cc1C(F)(F)F (stereo not given)
0

Param item: `O=C1/C(=C/c2ccc([N+](=O)[O-])s2)Oc2ccc(Br)cc21`
1

* * *

- Tested on: NCI-H522 lung
- run_description: NCI-60 one-dose screen, 48 h (100 = growth as untreated, 0 = no growth, -100 = all killed)
- measurement_parameters: 10 µM unless noted
About 83,000 compounds went through this panel and 20% of them were active in at least one assay; those are over-represented in the sample as a whole.
Everything with growth lower than 20% is false (0); everything else, including exactly 20%, is true (1).

{"molecule": "O=C(N1CCC(CN=c2cc3n(-c4ccc(Cl)cc4)c4ccccc4nc-3cc2Nc2ccc(Cl)cc2)CC1)N1CC1", "assigned_category": "false (0)"}

Hello, I need to know if COc1cc(/C=C2\CCC/C(=C\c3ccc(OCC4CO4)c(OC)c3)C2=O)ccc1OCC1CO1 (stereo not given) has measured growth not below 20%. Thanks!
true (1)

Do the same for `COc1ccc(CCN2CCCN3C2=Nc2ccccc2S3(=O)=O)cc1` please
false (0)

Cool, now `CCC1=C(c2ccc(OC)cc2)C(C)(C)Oc2c1ccc(O)c2CN1CCCC1`
true (1)

Also `Clc1ccc2c(Nc3ccc4oc(NCCN5CCCC5)nc4c3)ccnc2c1` , if possible.
true (1)

Also `O=C(Nc1ccc(OCc2nnc(-c3ccccc3)o2)c(F)c1)Nc1ccc(Cl)c(C(F)(F)F)c1` ?
false (0)

* * *

- Tested on: A549/ATCC NSCLC
- run_description: NCI-60 one-dose screen, 48 h (100 = growth as untreated, 0 = no growth, -100 = all killed)
- measurement_parameters: 10 µM unless noted
This is part of a sample that, as a whole, favours compounds with a hit. Of some 83,000 tested, about 20% had one in any assay.
Use 30% as the dividing line for growth, with the line itself on the true (1) side and lower values as false (0).

Consider the following illustrative entries.
{"compound": "O=C(Nc1nc(-c2ccc(Cl)cc2)cs1)c1cc(O)c(O)c(O)c1", "assigned_category": "false (0)"}
{"compound": "COc1ccc(/C=C/C(=O)Nc2cccnc2Nc2ccc(F)cc2)cc1", "assigned_category": "true (1)"}
{"compound": "Cc1ccc(NC(=O)Nc2ccc(-c3cccnc3)cc2N2CCC(CO)CC2)cc1", "assigned_category": "false (0)"}
{"compound": "Oc1ccccc1C=Nc1ccccc1N=Cc1ccccc1O.[Cu+2]", "assigned_category": "true (1)"}
{"compound": "COc1cc(/C=C/C(=O)N2CCN(C(=O)/C=C/c3ccccc3)CC2)cc(OC)c1OC", "assigned_category": "true (1)"}
{"compound": "C[N+]1(CCC[N+]2(C)C[C@@H]3[C@H](C2)[C@@H]2C=C[C@H]3C2)CCOCC1 (some centres undefined)", "assigned_category": "true (1)"}
{"compound": "N#Cc1c(N)[nH]c(S)c1C#N", "assigned_category": "true (1)"}
{"compound": "C=C1c2c(C)nn(-c3ccc(C#CCOC4OC(CO)C(O)C(O)C4O)cc3)c2N(C)C23C[C@H]1C1(C)c4c(C)nn(-c5ccc(C#CCOC6OC(CO)C(O)C(O)C6O)cc5)c4N(C)C(C)(C[C@H]12)C3 (some centres undefined)", "assigned_category": "false (0)"}

Moving on to another compound below.
Check if growth >= 30% (inclusive). Item: COc1cc(/C=C/C(=O)c2ccc(F)cc2)ccc1OCCCCCOc1cc2c(cc1OC)C(=O)N1CCCC1C=N2 (centres undefined)
false (0)

* * *

- Test system: MDA-MB-435 melanoma
- run_description: NCI-60 one-dose screen, 48 h
- measurement_parameters: 10 µM unless noted
Compounds without any hit were thinned out: in the full panel of roughly 83,000, 20% have a hit. Active and inactive are the calls of the source. The calls were made as follows: active = growth percent below 10; inactive = the rest.
Please reply with one of these outcomes: t for active, f for inactive

Field: outcome | Entry: `Cn1cc(-c2nc(-c3c[nH]c4ncccc34)cs2)c2cccnc21`
t

* * *

- Test system: M14 melanoma
- run_description: NCI-60 one-dose screen, 48 h (100 = growth as untreated, 0 = no growth, -100 = all killed)
- measurement_parameters: 10 µM unless noted
About 83,000 compounds went through this panel and 20% of them were active in at least one assay; those are over-represented in the sample as a whole.
Define the label as True when growth is strictly less than 40% and as False in all remaining cases.

{"compound": "CC1CC(C)/C(=N/NC(N)=O)C(C(O)CC2CCC(=O)NC2=O)C1 (centres undefined)", "system_name": "M14 melanoma", "assigned_category": "True"}

In the record for COc1cc(C2C=C(c3ccc(C)cc3)Nc3nc(SC)[nH]c(=O)c32)ccc1Oc1ccnc2cc(Cl)ccc12 (centres undefined) , is growth less than 40%?
False

What do we get for `O=C(Nc1ccc(C2=NCCCN2)cc1)Nc1ccc(C2=NCCCN2)cc1` ?
False

Now the same for `Nc1nc(SCC2(CCl)COC2)c2[nH]cnc2n1`
False

Same lookup for `Cc1c(C(N)=O)sc2c1c(=O)n(Cc1ccccc1)c1nnc(S(=O)(=O)CC(=O)Nc3ccc(Cl)cc3)n21` , please.
False

Again, but for `c1cnc2n[nH]c(Nc3ncnc4c3sc3ncccc34)c2c1`
False

* * *

- Tested on: NCI/ADR-RES ovarian
- run_description: NCI-60 one-dose screen, 48 h (100 = growth as untreated, 0 = no growth, -100 = all killed)
- measurement_parameters: 10 µM unless noted
The panel holds about 83,000 compounds, 20% with a hit somewhere; the sample as a whole holds those more often.
reported_property: growth (%)
Return type: number; implicit unit %.

Would you kindly share the measured growth for COc1ccc(C2=NN(C(=O)c3cc(OC)c(OC)c(OC)c3)C(c3ccc(C#N)cc3)C2)cc1OC (stereo not given) ?
2.92

`O=C(COC(=O)[C@H](C[Se][Se]C[C@H](NC(=O)c1ccc(Br)cc1F)C(=O)OCC(=O)c1ccc(F)cc1)NC(=O)c1ccc(Br)cc1F)c1ccc(F)cc1` ?
-82.8

// next record CCC(O)C(C)(C)C (stereo not given)
97.7

# iterate: `N#CCCCCCn1c2ccccc2c2c3c(c4c5ccccc5[nH]c4c21)C(=O)N(O)C3=O`
67.9

Also, `O=C1C[C@@H]2/C(=C(O)\C=C\c3ccccc3)C(=O)C=C[C@@H]2O1` please.
7.67

Next compound up: COc1cc(C2NC(c3ccc(Cl)cc3)C(C)/C(=N/NC(N)=S)C2C)cc(OC)c1OC (stereo not given)
94.1

`ClC1=C(Cl)C(Cl)=C(Cl)C1=Cc1ccc(Cl)cc1` ?
-47.5

Same for `O=C1NCN(CCO)CN1`
102

Again, but for COc1cc2c(cc1OC)C1CCN3C(=O)CCC3N1CC2 (stereo not given)
99.6

Do the same for `Cc1nn(-c2ccccc2)c(Cl)c1C(CC(=O)c1ccc(Cl)cc1)CC(=O)c1ccc(Cl)cc1` please
90.2

* * *

- System: RPMI-8226 leukemia
- run_description: NCI-60 one-dose screen, 48 h
- measurement_parameters: 10 µM unless noted
This is part of a sample that, as a whole, favours compounds with a hit. Of some 83,000 tested, about 20% had one in any assay. Active and inactive are the calls of the source. How the source made its calls: active means growth percent below 10; inactive means the rest.
Permitted responses: active, inactive

// known answers, use as guide
{"compound": "N#Cc1cccc(/C=C(/C(=O)c2ccccc2)c2ccccc2)c1", "assigned_category": "active"}
{"compound": "O=C1CCCN1C1CCN(Cc2cc3ccccc3[nH]c2=O)c2ccccc21 (stereo unspecified)", "assigned_category": "active"}

Hi team, can someone confirm the assay call for Clc1ccc(CCC(Cn2ccnc2)Sc2c(Cl)cccc2Cl)cc1 (stereo unspecified) ?
inactive

Another compound to look at: CCC(c1ccccc1)c1noc(CCN(CC)CC)n1 (stereo unspecified)
inactive

And then `OCCOc1c(Cl)cc(Cl)cc1Cl` , what is it?
inactive

One more compound: `N#Cc1c(N2CCOCC2)nc2sc3cc(Cl)ccc3n2c1=N`
inactive
